Documented λmax (ABS) across a set of molecules
- method description: Spectroscopic properties of the BDM library (absorbance and emission maxima)
- Format: physicochemical
assay metric: λmax (ABS) (nm)

                          chemical_structure  test_value
 0  CCCc1ccc(/C=C/C2=[N+]3C(=C(CCN)c4cccn4[B-]3(F)F)C(C)=C2)cc1         557
 1  CC1=CC(/C=C/c2cccc3c2OCO3)=[N+]2C1=C(CCN)c1cccn1[B-]2(F)F         558
 2  CC1=CC(/C=C/c2ccc(/C=C/c3ccccc3)cc2)=[N+]2C1=C(CCN)c1cccn1[B-]2(F)F         574
 3  COc1ccc(/C=C/C2=[N+]3C(=C(CCN)c4cccn4[B-]3(F)F)C(C)=C2)cc1F         556
 4  CSc1ccc(/C=C/c2cc(C)c3n2[B-](F)(F)[N+]2=CC=CC2=C3CCN)cc1         567
 5  CCCCN(CCCC)c1ccc(/C=C/C2=[N+]3C(=C(CCN)c4cccn4[B-]3(F)F)C(C)=C2)cc1         622
 6  CC1=CC(/C=C/c2ccccc2OCc2ccccc2)=[N+]2C1=C(CCN)c1cccn1[B-]2(F)F         559
 7  CC1=CC(/C=C/c2ccc(SC(F)(F)F)cc2)=[N+]2C1=C(CCN)c1cccn1[B-]2(F)F         553
 8  CC1=CC(/C=C/c2cccc(O)c2)=[N+]2C1=C(CCN)c1cccn1[B-]2(F)F         556
 9  CC1=CC(/C=C/c2ccc(OCc3ccccc3)cc2)=[N+]2C1=C(CCN)c1cccn1[B-]2(F)F         565
10  CC1=CC(/C=C/c2c(C)cc(C)cc2C)=[N+]2C1=C(CCN)c1cccn1[B-]2(F)F         549
11  CC1=CC(/C=C/c2ccc(N(C)C)c3ccccc23)=[N+]2C1=C(CCN)c1cccn1[B-]2(F)F         586
12  CC1=CC(/C=C/c2ccc(OCCCN(C)C)cc2)=[N+]2C1=C(CCN)c1cccn1[B-]2(F)F         566
13  CC1=CC(/C=C/c2cccc(N3CCCCC3)c2[N+](=O)[O-])=[N+]2C1=C(CCN)c1cccn1[B-]2(F)F         573
14  CCOc1ccccc1/C=C/C1=[N+]2C(=C(CCN)c3cccn3[B-]2(F)F)C(C)=C1         560
15  Cc1cccc(/C=C/c2cc(C)c3n2[B-](F)(F)[N+]2=CC=CC2=C3CCN)c1         554

====

- method description: Spectroscopic properties of the BDM library (absorbance and emission maxima)
- Type: physicochemical
assay metric: λmax (EM)

>>> print(df.to_string())
                                   compound  test_value
0  COc1ccc(-c2ccc(/C=C/C3=[N+]4C(=C(CCN)c5cccn5[B-]4(F)F)C(C)=C3)o2)cc1Cl [BDM-195]      663 nm
1  CC1=CC(/C=C/c2ccc(Oc3ccc(Cl)c(Cl)c3)cc2)=[N+]2C1=C(CCN)c1cccn1[B-]2(F)F [BDM-299]      563 nm
2  Cc1ccc2cccc(/C=C/c3cc(C)c4n3[B-](F)(F)[N+]3=CC=CC3=C4CCN)c2c1 [BDM-34]      581 nm
3  COc1ccc(/C=C/C2=[N+]3C(=C(CCN)c4cccn4[B-]3(F)F)C(C)=C2)c(Cl)c1OC [BDM-372]      578 nm
